Below, each entry is listed with its recorded kcat/Km.
# Substrate: [H][C@]12SCC(COC(C)=O)=C(C(=O)O)N1C(=O)[C@H]2NC(=O)CCC[C@@H](N)C(=O)O
# Assay Notes: CPC consumption by HPLC, initial rates
# Format: biochemical, Trigonopsis variabilis
# Test Settings: 0.1 M potassium phosphate pH 8.0, 30 °C, air saturated
Write the number in M⁻¹ s⁻¹ without appending the unit.

TvDAAO (Trigonopsis variabilis; C108F/E32R/F33D/F54S) (protein, FAD-containing; no tag mentioned) MAKIVVIGAGVAGLTTALQLLRKGHEVTIVSRDTPGDLSIGYTSPWAGANWLTSYDGGKLADYDAVSYPILRELARSSPEAGIRLISQRSHVLKRDLPKLEVAMSAIFQRNPWFKNTVDSFEIIEDRSRIVHDDVAYLVEFRSVCIHTGVYLNWLMSQCLSLGATVVKRRVNHIKDANLLHSSGSRPDVIVNCSGLFARFLGGVEDKKMYPIRGQVVLVRNSLPFMASFSSTPEKENEDEALYIMTRFDGTSIIGGCFQPNNWSSEPDPSLTHRILSRALDRFPELTKDGPLDIVRECVGHRPGREGGPRVELEKIPGVGFVVHNYGAAGAGYQSSYGMADEAVSYVERALTRPNL :: 45000
TvDAAO (Trigonopsis variabilis; C108F/F54S/M156L) (protein, FAD-containing; no tag mentioned) MAKIVVIGAGVAGLTTALQLLRKGHEVTIVSEFTPGDLSIGYTSPWAGANWLTSYDGGKLADYDAVSYPILRELARSSPEAGIRLISQRSHVLKRDLPKLEVAMSAIFQRNPWFKNTVDSFEIIEDRSRIVHDDVAYLVEFRSVCIHTGVYLNWLLSQCLSLGATVVKRRVNHIKDANLLHSSGSRPDVIVNCSGLFARFLGGVEDKKMYPIRGQVVLVRNSLPFMASFSSTPEKENEDEALYIMTRFDGTSIIGGCFQPNNWSSEPDPSLTHRILSRALDRFPELTKDGPLDIVRECVGHRPGREGGPRVELEKIPGVGFVVHNYGAAGAGYQSSYGMADEAVSYVERALTRPNL :: 60000

**Query** Requested field: kcat/Km. Item: TvDAAO (Trigonopsis variabilis; C108F/C298N/E32R/F33D/F54S/M156L) (protein, FAD-containing; no tag mentioned) MAKIVVIGAGVAGLTTALQLLRKGHEVTIVSRDTPGDLSIGYTSPWAGANWLTSYDGGKLADYDAVSYPILRELARSSPEAGIRLISQRSHVLKRDLPKLEVAMSAIFQRNPWFKNTVDSFEIIEDRSRIVHDDVAYLVEFRSVCIHTGVYLNWLLSQCLSLGATVVKRRVNHIKDANLLHSSGSRPDVIVNCSGLFARFLGGVEDKKMYPIRGQVVLVRNSLPFMASFSSTPEKENEDEALYIMTRFDGTSIIGGCFQPNNWSSEPDPSLTHRILSRALDRFPELTKDGPLDIVRENVGHRPGREGGPRVELEKIPGVGFVVHNYGAAGAGYQSSYGMADEAVSYVERALTRPNL
**Result** 42000

Source listed as paper PMC6770189.
